The measurements presented in this section are drawn from DBAASP.

Exercise: state measured MIC for each of the compounds provided.
# Test system: Enterococcus faecalis ATCC 29212
Answers are plain numbers, in µM.

Before answering, review these 3 worked examples.
smi: CC[C@H](C)[C@H](N)C(=O)N[C@@H](CC(C)C)C(=O)N[C@@H](C)C(=O)N[C@@H](Cc1c[nH]c2ccccc12)C(=O)N[C@@H](CCCCN)C(=O)N[C@@H](Cc1c[nH]c2ccccc12)C(=O)N[C@@H](C)C(=O)N[C@@H](Cc1c[nH]c2ccccc12)C(=O)N[C@@H](Cc1c[nH]c2ccccc12)C(=O)N[C@@H](C)C(=O)N[C@@H](Cc1c[nH]c2ccccc12)C(=O)N[C@@H](CCCN=C(N)N)C(=O)N[C@@H](CCCN=C(N)N)C(N)=O
MIC, µM: 4.37
//
smi: CC[C@H](C)[C@H](N)C(=O)N[C@@H](CC(N)=O)C(=O)N[C@@H](CC(C)C)C(=O)N[C@@H](CCCCN)C(=O)N[C@@H](C)C(=O)N[C@H](C(=O)N[C@@H](C)C(=O)N[C@@H](C)C(=O)N[C@@H](CC(C)C)C(=O)N[C@@H](C)C(=O)N[C@@H](CCCCN)C(=O)N[C@@H](CCCCN)C(=O)N[C@@H](CC(C)C)C(=O)N[C@@H](CC(C)C)C(=O)O)[C@@H](C)CC
MIC, µM: 1.69
//
smi: CC(C)[C@H](NC(=O)CNC(=O)[C@H](CCCN=C(N)N)NC(=O)[C@H](Cc1cnc[nH]1)NC(=O)[C@H](Cc1c[nH]c2ccccc12)NC(=O)[C@H](Cc1ccccc1)NC(=O)[C@H](Cc1cnc[nH]1)NC(=O)[C@H](Cc1ccc(O)cc1)NC(=O)[C@@H](N)Cc1ccc(O)cc1)C(=O)N[C@H](C(=O)N[C@@H](CCCCN)C(=O)N[C@@H](CCCN=C(N)N)C(=O)O)[C@@H](C)O
MIC, µM: 30

Below are some compounds; for each one, tell me its MIC.
1. C[C@H](NC(=O)[C@H](CCCN=C(N)N)NC(=O)[C@H](Cc1c[nH]c2ccccc12)NC(=O)[C@H](CCCN=C(N)N)NC(=O)[C@H](Cc1c[nH]c2ccccc12)NC(=O)[C@H](Cc1c[nH]c2ccccc12)NC(=O)[C@H](Cc1c[nH]c2ccccc12)NC(=O)[C@H](CCCN=C(N)N)NC(=O)[C@H](Cc1c[nH]c2ccccc12)NC(=O)[C@H](CCCN=C(N)N)NC(=O)[C@@H](N)CO)C(N)=O
2. C[C@@H](O)[C@@H]1NC(=O)[C@@H](NC(=O)[C@H](CCCCN)NC(=O)[C@H](Cc2c[nH]c3ccccc23)NC(=O)[C@H](CCCCN)NC(=O)[C@@H](N)Cc2c[nH]c3ccccc23)CSSC[C@@H](C(=O)N[C@@H](CCCCN)C(=O)N[C@@H](Cc2c[nH]c3ccccc23)C(=O)N[C@@H](CCCCN)C(=O)N[C@@H](Cc2c[nH]c3ccccc23)C(N)=O)NC(=O)CNC(=O)[C@H](CO)NC(=O)[C@H](CCCCN)NC1=O
3. C[C@H](NC(=O)[C@H](CCCN=C(N)N)NC(=O)[C@H](Cc1c[nH]c2ccccc12)NC(=O)[C@H](CCCN=C(N)N)NC(=O)[C@H](Cc1c[nH]c2ccccc12)NC(=O)[C@H](Cc1c[nH]c2ccccc12)NC(=O)[C@H](Cc1c[nH]c2ccccc12)NC(=O)[C@H](CCCN=C(N)N)NC(=O)[C@H](Cc1c[nH]c2ccccc12)NC(=O)[C@H](CCCN=C(N)N)NC(=O)[C@@H](N)[C@@H](C)O)C(N)=O
4. CC[C@H](C)[C@H](NC(=O)[C@H](Cc1c[nH]c2ccccc12)NC(=O)[C@H](CCCCN)NC(=O)[C@H](CC(C)C)NC(=O)[C@@H](NC(=O)[C@H](Cc1c[nH]c2ccccc12)NC(=O)CNC(=O)[C@@H](NC(=O)[C@H](CCCCN)NC(=O)[C@H](CCCCN)NC(=O)[C@H](CC(C)C)NC(=O)[C@@H](N)CCCN=C(N)N)[C@@H](C)CC)C(C)C)C(N)=O

Result:
4
1.08
4
4

Problem: Dear colleague, I am looking for the recorded MIC of the following compound: CC[C@H](C)[C@H](NC(=O)[C@H](CCCN=C(N)N)NC(=O)[C@H](C)NC(=O)CNC(=O)[C@@H](N)CCCN=C(N)N)C(=O)N[C@H](C(=O)N[C@H](C(=O)N[C@H](C(=O)N[C@@H](CCCN=C(N)N)C(=O)N[C@H](C(=O)N[C@@H](C)C(=O)N[C@@H](CCCN=C(N)N)C(N)=O)C(C)C)[C@@H](C)CC)C(C)C)C(C)C
Result: 22.7
